assay: Cytotoxicity against activated human monocyte after 24 to 72 hrs by alamar blue assay; format: cell-based
OBSERVATION TYPE: EC50

Query :: // returns reported EC50 for input "N#Cc1cc(Cl)cc(Oc2cc(OCc3n[nH]c4nc(N)ccc34)ccc2Cl)c1"
Result :: > 3000 nM

* * *

tested on: PBMC; assay: Cytotoxicity against stationary-phase human PBMC after 24 to 72 hrs by alamar blue assay; type: cell-based
OBSERVATION TYPE: EC50

Query :: Which value of EC50 has been reported for "N#Cc1cc(Cl)cc(Oc2cc(OCc3n[nH]c4nc(N)ccc34)ccc2Cl)c1" in the records?
Result :: > 3 µM

* * *

test system: HL-60; experiment: Cytotoxicity against human HL60 cells after 24 to 72 hrs by alamar blue assay; assay type: cell-based
pEC50: −log10 of the molar value.
OBSERVATION TYPE: pEC50

Query :: // pEC50 lookup, key: "N#Cc1cc(Cl)cc(Oc2cc(OCc3n[nH]c4nc(N)ccc34)ccc2Cl)c1"
Result :: < 5.52

* * *

Here the recorded EC95 is given for each entry.
tested on: Human immunodeficiency virus 1; test: Antiviral activity against HIV1 isolate R8 harboring reverse transcriptase Y181C mutant infected in human MT4 cells assessed as inhibition of viral replication after 72 hrs in presence of 50% human serum; assay type: functional; conditions: Human immunodeficiency virus 1, isolate R8, MT4, 72 h
Numbers only; they are read as nM.

[
  {
    "ITEM SMILES": "Cc1cc(C#N)cc(C)c1Oc1nc(Nc2ccc(C#N)cc2)nc(N)c1Br",
    "OBSERVATION TYPE": "EC95",
    "READOUT NUMBER": 266
  },
  {
    "ITEM SMILES": "N#Cc1cc(Cl)cc(Oc2cc(OCc3n[nH]c4nc(N)ccc34)ccc2Cl)c1",
    "OBSERVATION TYPE": "EC95",
    "READOUT NUMBER": 184
  }
]

Query :: Give its EC95 value. Item: "O=C1Nc2ccc(Cl)cc2[C@@](C#CC2CC2)(C(F)(F)F)O1"
Result :: 89

* * *

# maps each entry to its EC95
system: Human immunodeficiency virus 1; assay: Antiviral activity against HIV1 isolate R8 harboring reverse transcriptase K103N and Y181C mutant infected in human MT4 cells assessed as inhibition of viral replication after 72 hrs in presence of 50% human serum; type: functional; settings: Human immunodeficiency virus 1, isolate R8, MT4, 72 h

[
  {
    "MOLECULE": "Cc1cc(C#N)cc(C)c1Oc1nc(Nc2ccc(C#N)cc2)nc(N)c1Br [ETRAVIRINE]",
    "TEST TARGET": "Human immunodeficiency virus 1",
    "EC95": "542 nM"
  },
  {
    "MOLECULE": "O=C1Nc2ccc(Cl)cc2[C@@](C#CC2CC2)(C(F)(F)F)O1 [EFAVIRENZ]",
    "TEST TARGET": "Human immunodeficiency virus 1",
    "EC95": "3390 nM"
  },
  {
    "MOLECULE": "Cc1ccnc2c1NC(=O)c1cccnc1N2C1CC1 [NEVIRAPINE]",
    "TEST TARGET": "Human immunodeficiency virus 1",
    "EC95": "> 8000 nM"
  }
]

// moving on: another record for EC95
Query :: Field: EC95 (Human immunodeficiency virus 1). Entry: "N#Cc1cc(Cl)cc(Oc2cc(OCc3n[nH]c4nc(N)ccc34)ccc2Cl)c1"
Result :: 447 nM
